Biological target: Fatty acid synthase (Homo sapiens)
Sequence (P49327 whole entry): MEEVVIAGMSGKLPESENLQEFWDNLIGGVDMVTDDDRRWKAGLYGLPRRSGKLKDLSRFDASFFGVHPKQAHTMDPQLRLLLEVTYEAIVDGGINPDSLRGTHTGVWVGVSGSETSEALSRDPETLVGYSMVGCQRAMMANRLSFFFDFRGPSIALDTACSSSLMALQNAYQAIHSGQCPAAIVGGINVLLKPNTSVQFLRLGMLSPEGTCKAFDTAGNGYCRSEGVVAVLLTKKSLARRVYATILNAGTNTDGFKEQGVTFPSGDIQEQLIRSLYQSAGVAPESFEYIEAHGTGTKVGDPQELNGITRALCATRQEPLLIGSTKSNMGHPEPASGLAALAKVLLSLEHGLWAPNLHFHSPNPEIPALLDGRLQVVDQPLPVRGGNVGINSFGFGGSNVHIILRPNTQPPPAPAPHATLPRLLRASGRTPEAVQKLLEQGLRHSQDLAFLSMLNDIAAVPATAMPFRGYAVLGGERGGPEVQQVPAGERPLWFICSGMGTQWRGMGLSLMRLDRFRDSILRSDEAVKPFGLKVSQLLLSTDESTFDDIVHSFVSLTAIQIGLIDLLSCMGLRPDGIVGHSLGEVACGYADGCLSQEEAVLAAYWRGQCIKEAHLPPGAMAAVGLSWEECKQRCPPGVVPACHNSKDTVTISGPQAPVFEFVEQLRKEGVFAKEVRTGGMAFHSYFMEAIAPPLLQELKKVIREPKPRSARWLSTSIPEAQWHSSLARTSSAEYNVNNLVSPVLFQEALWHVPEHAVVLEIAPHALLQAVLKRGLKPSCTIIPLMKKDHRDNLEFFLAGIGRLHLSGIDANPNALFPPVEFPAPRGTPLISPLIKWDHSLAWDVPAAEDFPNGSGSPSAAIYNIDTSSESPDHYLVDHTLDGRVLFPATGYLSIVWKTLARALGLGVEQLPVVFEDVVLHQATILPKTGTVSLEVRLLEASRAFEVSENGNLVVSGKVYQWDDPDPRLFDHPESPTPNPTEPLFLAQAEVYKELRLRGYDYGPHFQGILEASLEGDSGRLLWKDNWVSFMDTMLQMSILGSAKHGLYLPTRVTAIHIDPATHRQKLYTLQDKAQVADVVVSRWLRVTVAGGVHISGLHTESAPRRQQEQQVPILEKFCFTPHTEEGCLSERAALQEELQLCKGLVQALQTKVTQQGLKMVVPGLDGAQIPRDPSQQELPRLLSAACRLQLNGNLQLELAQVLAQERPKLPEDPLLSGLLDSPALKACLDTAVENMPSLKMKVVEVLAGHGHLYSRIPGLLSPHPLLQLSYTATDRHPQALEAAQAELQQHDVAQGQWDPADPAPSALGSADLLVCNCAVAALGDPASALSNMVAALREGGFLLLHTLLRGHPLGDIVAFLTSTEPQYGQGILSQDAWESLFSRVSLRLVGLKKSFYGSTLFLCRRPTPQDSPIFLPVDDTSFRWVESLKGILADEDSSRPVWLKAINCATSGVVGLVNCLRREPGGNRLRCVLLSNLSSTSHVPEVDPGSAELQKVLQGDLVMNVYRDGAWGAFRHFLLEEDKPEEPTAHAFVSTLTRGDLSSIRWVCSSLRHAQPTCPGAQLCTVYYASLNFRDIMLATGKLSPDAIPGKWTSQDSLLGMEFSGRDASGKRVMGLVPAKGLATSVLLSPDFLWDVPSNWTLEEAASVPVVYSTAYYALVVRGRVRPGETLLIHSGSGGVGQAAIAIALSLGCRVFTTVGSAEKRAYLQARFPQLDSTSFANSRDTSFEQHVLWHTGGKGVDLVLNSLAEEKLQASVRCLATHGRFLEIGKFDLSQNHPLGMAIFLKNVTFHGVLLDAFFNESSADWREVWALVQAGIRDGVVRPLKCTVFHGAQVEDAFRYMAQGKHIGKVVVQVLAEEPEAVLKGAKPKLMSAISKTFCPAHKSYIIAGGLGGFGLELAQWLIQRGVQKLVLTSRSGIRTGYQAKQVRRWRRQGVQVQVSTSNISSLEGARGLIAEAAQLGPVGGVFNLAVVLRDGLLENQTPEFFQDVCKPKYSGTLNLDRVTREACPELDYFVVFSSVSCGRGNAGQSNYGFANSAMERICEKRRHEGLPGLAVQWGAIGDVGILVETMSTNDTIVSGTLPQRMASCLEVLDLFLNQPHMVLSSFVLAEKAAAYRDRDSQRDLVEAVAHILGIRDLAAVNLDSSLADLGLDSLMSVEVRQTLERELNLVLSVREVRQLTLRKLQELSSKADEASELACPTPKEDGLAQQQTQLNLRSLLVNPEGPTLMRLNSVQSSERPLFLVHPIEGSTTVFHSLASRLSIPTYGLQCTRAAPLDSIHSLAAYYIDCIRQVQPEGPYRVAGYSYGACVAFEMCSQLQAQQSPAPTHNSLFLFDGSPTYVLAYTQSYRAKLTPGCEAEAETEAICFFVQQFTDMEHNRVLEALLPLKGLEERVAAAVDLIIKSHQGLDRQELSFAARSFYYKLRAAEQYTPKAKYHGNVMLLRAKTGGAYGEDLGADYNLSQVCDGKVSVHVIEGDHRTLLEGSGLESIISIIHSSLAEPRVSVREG
Assay: inhibition of human FAS-TE enzyme activity – biochemical, endpoint fluorescence intensity, uHTS hits, dose response (AID 624327);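 also: fluorescence from hydrolysis of an O-methyl fluorescein acyl ester substrate by the enzyme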
Type: functional
The source made the active and inactive calls.
# valid calls are yes (1) for active, no (0) for inactive; nothing else

Illustrative cases are given below, each with its answer.
INSERT INTO results (compound, system_tested, assigned_label) VALUES
  ('CCC(C)NC(=O)CSc1nc2c(sc(=S)n2Cc2ccco2)c(=O)n1-c1ccccc1 (stereo unspecified)', 'Fatty acid synthase (Homo sapiens)', 'no (0)'),
  ('O=C(Nc1c(C(=O)N2CCOCC2)cnn1-c1ccccc1)c1ccc([N+](=O)[O-])cc1', 'Fatty acid synthase (Homo sapiens)', 'yes (1)'),
  ('O=C(/C=C/c1cccc([N+](=O)[O-])c1)N1CCN(S(=O)(=O)c2cccs2)CC1', 'Fatty acid synthase (Homo sapiens)', 'yes (1)'),
  ('COc1cc(CCc2ccccc2)c(C(=O)O)c(O)c1C/C=C(/C)CCC=C(C)C', 'Fatty acid synthase (Homo sapiens)', 'yes (1)'),
  ('CN(C)CCNc1nc2sc3c(c2c(=O)n1CCc1ccccc1)CCCCC3', 'Fatty acid synthase (Homo sapiens)', 'yes (1)'),
  ('CCc1cccc(C)c1NC(=O)COC(=O)c1cc([N+](=O)[O-])ccc1N1CCOCC1', 'Fatty acid synthase (Homo sapiens)', 'yes (1)'),
  ('CCOC(=O)[C@@H]1[C@H]2COc3ccc(Br)cc3[C@@H]2N2C(=O)N(c3cccc(Cl)c3)C(=O)[C@@]12C', 'Fatty acid synthase (Homo sapiens)', 'no (0)'),
  ('O=C(CNc1cc(S(=O)(=O)N2CCCC2)ccc1OCC(F)(F)F)Nc1ccc(SC(F)F)cc1', 'Fatty acid synthase (Homo sapiens)', 'yes (1)');

Could you check what this test reported for Cc1ccc(S(=O)(=O)Nc2cccc(-c3ccc(N4CCCCCC4)nn3)c2)c(C)c1 ?
yes (1)

Assay result, entry CCCCCc1nc2sc3c(c2c(=O)n1NC(=O)c1ccc([N+](=O)[O-])cc1)CC(C)(C)OC3 — outcome?
yes (1)

Tell me the recorded outcome of this test for COc1ccc(C(=O)N/C(=C\c2cn(S(=O)(=O)N(C)C)c3ccccc23)C(=O)N2CCOCC2)cc1 .
yes (1)

* * *

Biological target: Rac GTPase-activating protein 1 (Homo sapiens)
Assay: blockers of MgcRacGAP-driven Rac1 GTP hydrolysis – biochemical, ADP Hunter fluorescence, primary and confirmatory, confirmation (AID 624330)
Assay type: functional
The source made the active and inactive calls.
MEASURE NAME: IC50

Below, 4 molecules whose answers are already recorded.
INSERT INTO results (molecule, reported_value) VALUES
  ('C=CCn1c(SCC(=O)Nc2ccc(O)cc2)nc2sc(CC)cc2c1=O', '54.5 µM (active)'),
  ('COc1cc(/C=N/NC(=O)C(=O)NCC2CCCO2)ccc1O (stereo not drawn)', '32.3 µM (active)'),
  ('CCN1CCN(CC(=O)Nc2cc(C(F)(F)F)ccc2OCCOC)CC1', '48.5 µM (active)'),
  ('Cc1ccc(CN2CCN(Cc3ccccc3F)CC2)cc1', '76.6 µM (active)');

Note to self: IC50 recorded for CCCS(=O)(=O)N1CCN(CC2CC3C=CC2C3)CC1 (stereo not drawn) was 205 µM (active)

Measured IC50 of CCOC(=O)c1[nH]c2ccccc2c1N=C(S)Nc1cc(C)ccc1C : 77.5 µM (active)

* * *

Biological target: Paired box protein Pax-8 (Homo sapiens)
Sequence (Q06710 whole entry): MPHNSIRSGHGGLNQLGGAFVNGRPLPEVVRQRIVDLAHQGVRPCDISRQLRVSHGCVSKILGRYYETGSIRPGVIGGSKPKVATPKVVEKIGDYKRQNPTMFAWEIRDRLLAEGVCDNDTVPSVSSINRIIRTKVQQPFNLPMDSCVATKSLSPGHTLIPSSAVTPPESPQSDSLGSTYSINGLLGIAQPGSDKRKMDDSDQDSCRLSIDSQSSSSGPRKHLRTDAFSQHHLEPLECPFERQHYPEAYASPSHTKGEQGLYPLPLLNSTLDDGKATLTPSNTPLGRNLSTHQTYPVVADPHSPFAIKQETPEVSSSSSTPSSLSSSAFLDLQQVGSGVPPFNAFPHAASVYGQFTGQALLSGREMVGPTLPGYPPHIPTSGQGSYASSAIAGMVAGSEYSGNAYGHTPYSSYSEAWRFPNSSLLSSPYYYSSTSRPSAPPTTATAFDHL
Experiment: PAX8 transcriptional activity inhibition in RMG-I – RMG-I cells, luciferase, cherry-pick, dose response (AID 687027);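 also: luciferase reporter driven by Pax8 target thyroperoxidase promoter measured by SteadyGlo luminescence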
Format: functional, cell-based
The source made the active and inactive calls.
AC50 by entry:

AC50 in this record for C[C@@H]1CCCCO[C@H](CN(C)S(=O)(=O)c2ccc(Cl)cc2)[C@@H](C)CN([C@@H](C)CO)C(=O)c2cc(NC(=O)Nc3ccc(C(F)(F)F)cc3)ccc2O1 : 2.87 µM (active)

The reported value for COc1cccc(-c2ccc3c(c2)[C@@H]2[C@@H](CCN2S(=O)(=O)c2ccccc2OC)[C@H](CO)N3C)c1 in terms of AC50 is 10.3 µM (active)

Lab note: measured AC50 of COc1ccc(S(=O)(=O)Nc2ccc3c(c2)C(=O)N([C@H](C)CO)C[C@@H](C)[C@@H](CN(C)Cc2ccc(C(F)(F)F)cc2)OCCCC[C@@H](C)O3)cc1 was 7.09 µM (active)

* * *

Molecular target: UniProtKB Q7T1G6
Sequence (Q7T1G6 whole entry): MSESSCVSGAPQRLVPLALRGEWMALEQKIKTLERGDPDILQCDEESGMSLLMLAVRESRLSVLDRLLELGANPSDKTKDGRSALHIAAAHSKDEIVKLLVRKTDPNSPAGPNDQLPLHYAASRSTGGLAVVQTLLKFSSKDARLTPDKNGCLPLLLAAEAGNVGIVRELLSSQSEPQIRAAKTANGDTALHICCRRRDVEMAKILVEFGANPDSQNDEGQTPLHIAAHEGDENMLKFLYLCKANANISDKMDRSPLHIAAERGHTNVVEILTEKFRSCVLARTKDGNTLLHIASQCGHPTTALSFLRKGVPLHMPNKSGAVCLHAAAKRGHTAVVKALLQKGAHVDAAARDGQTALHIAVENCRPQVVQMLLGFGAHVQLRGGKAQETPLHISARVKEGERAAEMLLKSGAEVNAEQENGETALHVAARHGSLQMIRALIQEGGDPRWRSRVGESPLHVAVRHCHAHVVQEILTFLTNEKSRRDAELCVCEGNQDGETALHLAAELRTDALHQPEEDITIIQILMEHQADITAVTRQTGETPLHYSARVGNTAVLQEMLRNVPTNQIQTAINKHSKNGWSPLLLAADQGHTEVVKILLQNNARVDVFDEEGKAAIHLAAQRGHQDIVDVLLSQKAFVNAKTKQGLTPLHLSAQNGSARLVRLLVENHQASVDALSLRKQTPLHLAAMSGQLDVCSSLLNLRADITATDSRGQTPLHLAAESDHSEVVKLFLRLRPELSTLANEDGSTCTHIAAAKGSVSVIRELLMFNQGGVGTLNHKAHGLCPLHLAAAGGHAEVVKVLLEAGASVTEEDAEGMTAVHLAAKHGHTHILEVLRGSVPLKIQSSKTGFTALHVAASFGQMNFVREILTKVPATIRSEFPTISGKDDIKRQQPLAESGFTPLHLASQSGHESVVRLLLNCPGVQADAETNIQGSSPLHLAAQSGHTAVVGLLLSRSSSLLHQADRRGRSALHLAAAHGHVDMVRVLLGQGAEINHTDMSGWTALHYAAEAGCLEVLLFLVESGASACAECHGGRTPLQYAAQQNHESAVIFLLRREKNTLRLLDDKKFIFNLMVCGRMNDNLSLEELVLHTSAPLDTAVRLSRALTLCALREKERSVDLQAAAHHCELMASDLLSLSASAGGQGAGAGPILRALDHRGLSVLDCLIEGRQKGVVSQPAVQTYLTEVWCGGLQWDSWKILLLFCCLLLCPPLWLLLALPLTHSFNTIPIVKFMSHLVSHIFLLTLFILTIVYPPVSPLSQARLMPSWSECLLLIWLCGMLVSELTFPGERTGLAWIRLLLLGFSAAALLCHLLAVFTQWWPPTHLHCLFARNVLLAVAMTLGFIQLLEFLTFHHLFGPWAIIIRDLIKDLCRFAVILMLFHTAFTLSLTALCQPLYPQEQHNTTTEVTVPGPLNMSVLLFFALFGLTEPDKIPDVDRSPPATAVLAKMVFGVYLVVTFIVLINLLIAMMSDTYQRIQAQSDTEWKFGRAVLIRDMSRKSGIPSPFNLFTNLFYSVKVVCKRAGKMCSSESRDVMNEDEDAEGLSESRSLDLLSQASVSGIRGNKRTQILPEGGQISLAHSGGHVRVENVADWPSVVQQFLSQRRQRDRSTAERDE
Assay: Fluorescence counterscreen assay for TRPML3 agonists: dose response cell-based high-throughput screening assay to identify agonists of the transient receptor potential channel N1 (TRPN1). [Related pubchem assays: 1526, 1424, 1448 ]
Type: functional
Below: a set of entries, each annotated with reported EC50.

Field: example entries. Status: answers known.
INSERT INTO assay_data (smiles_structure, measure_name, reported_value) VALUES
  ('COc1ccc(OC)c(S(=O)(=O)N2CCCc3ccccc32)c1', 'EC50', '> 29.9 µM (not active)'),
  ('O=C(CN1CCN(S(=O)(=O)c2ccc(F)cc2)CC1)Nc1ccc(Cl)c(C(F)(F)F)c1', 'EC50', '> 29.9 µM (not active)'),
  ('O=S(=O)(N1CCCCC1)N1CCN(c2cc(Cl)ccc2Cl)CC1', 'EC50', '> 29.9 µM (not active)');

Record Cc1cc(C)c(S(=O)(=O)c2c(C)cccc2C)c(OCC(C)C)n1 , field EC50: > 29.9 µM (not active)

* * *

Target: UniProtKB P55789
Sequence (P55789 whole entry): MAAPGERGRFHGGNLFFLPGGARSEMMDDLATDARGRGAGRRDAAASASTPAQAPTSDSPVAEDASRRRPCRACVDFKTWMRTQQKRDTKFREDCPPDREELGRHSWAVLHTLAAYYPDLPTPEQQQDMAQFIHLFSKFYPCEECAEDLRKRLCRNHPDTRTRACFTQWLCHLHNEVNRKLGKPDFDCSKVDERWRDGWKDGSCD
Test: ALR-catalysed DTT oxidation blockers – biochemical, H2O2 detection, luminescence, cherry-pick, dose response (AID 493248)
Active and inactive are the calls of the source.
MEASURE NAME: AC50

INSERT INTO assay_data (molecule, measure_name, reported_value) VALUES
  ('Cc1cc(C)n(CCC(=O)N2CCCC(Nc3ccc(F)cc3)C2)n1 (stereo not drawn)', 'AC50', '33300 nM (active)'),
  ('Sc1nnc(-c2ccco2)n1/N=C/C(Cl)=C/c1ccccc1', 'AC50', '798 nM (active)'),
  ('Sc1nnc(-c2ccccn2)n1/N=C/c1ccc(Br)s1', 'AC50', '10500 nM (active)'),
  ('CC(CN1CCN(c2ccccc2)CC1)c1ccccc1 (stereo not drawn)', 'AC50', '66900 nM (active)'),
  ('CCN(CC)CC(=O)Nc1ccc2c(c1)Nc1ccccc1CC2', 'AC50', '221 nM (active)');

Form field AC50, entry C/C(=C1/SC(=S)N(CCC(=O)O)C1=O)c1ccc(O)cc1 : 4140 nM (active)

Recorded result, O=C(O)c1ccc(Sc2nnc(-c3cccc(Br)c3)o2)c([N+](=O)[O-])c1 , AC50: 44 nM (active)

Record O=C1CC(N2CCN(c3ccc(O)cc3)CC2)C(=O)N1Cc1cccs1 (stereo not drawn) . Reported AC50: 123 nM (active)

* * *

Experiment: NIH3T3 cell viability loss – ATP luminescence, mouse fibroblasts, counter-screen, dose response (AID 2010);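 also: cells exposed to compound for about 90 hours before reading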
Format: functional, cell-based
Here, each record is paired with measured EC50 data.

INSERT INTO measurements (compound, reported_value) VALUES
  ('COc1ccc(CN2CCN(Cc3ccc(C)cc3)CC2)c(OC)c1', '> 60 µM (not active)');

So for COc1ccc(N2CCN(c3ncnc4scc(-c5ccc(C)cc5)c34)CC2)cc1 , the logged EC50 turned out to be > 60 µM (not active)

Lab note: Cc1ccc(C(=O)N/C(=C\c2ccc(-c3ccc(Cl)cc3)o2)C(=O)NCCCN(C)C)cc1 gave EC50 of > 30 µM (not active)

Record O=C(c1cnn2c(C(F)(F)F)cc(-c3ccccc3)nc12)N1CCCCC1c1cccnc1 (centres undefined) , field EC50: > 60 µM (not active)

* * *

Target: UniProtKB Q9BQF6
Sequence (Q9BQF6 whole entry): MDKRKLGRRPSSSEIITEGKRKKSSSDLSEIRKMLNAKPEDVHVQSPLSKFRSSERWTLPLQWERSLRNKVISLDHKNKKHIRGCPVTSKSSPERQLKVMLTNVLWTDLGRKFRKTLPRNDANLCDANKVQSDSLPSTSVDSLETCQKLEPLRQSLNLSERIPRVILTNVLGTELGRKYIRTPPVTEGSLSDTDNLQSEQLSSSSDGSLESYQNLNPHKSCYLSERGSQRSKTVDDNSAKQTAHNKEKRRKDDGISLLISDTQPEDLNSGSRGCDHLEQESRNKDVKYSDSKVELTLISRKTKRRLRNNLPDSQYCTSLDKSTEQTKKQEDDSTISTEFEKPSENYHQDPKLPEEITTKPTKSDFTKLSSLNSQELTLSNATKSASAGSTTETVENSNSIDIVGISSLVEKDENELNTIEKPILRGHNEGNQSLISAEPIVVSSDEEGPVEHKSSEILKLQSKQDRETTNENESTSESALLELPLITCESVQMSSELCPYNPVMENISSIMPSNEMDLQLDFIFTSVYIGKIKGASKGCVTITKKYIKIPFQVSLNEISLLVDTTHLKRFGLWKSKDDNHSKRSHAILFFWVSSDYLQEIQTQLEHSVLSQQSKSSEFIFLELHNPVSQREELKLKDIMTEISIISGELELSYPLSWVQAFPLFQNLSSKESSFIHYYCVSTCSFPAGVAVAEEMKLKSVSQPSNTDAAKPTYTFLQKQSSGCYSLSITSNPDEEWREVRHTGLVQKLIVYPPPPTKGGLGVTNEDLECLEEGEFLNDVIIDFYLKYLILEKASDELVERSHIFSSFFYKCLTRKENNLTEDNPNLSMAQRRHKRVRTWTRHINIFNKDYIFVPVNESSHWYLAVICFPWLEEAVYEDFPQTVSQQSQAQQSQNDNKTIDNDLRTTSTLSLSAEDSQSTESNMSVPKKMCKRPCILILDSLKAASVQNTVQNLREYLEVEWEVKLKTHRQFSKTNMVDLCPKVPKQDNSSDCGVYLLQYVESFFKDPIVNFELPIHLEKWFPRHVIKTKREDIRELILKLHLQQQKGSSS
Type: functional
The source made the active and inactive calls.
MEASURE NAME: IC50

INSERT INTO measurements (smiles_structure, system_tested, measure_name, reported_value) VALUES
  ('Cc1ccccc1C(=O)Oc1ccc2ccc(O)cc2c1', 'UniProtKB Q9BQF6', 'IC50', '4.59 µM (active)'),
  ('CCOC(=O)c1sc(Nc2ccccc2Cl)nc1C', 'UniProtKB Q9BQF6', 'IC50', '8.78 µM (active)'),
  ('CC(C)c1ccc(-c2nnn(CCC(=O)O)n2)cc1', 'UniProtKB Q9BQF6', 'IC50', '7.22 µM (active)'),
  ('CN(C)c1ccc(C(=O)/C=C/c2ccccc2)cc1', 'UniProtKB Q9BQF6', 'IC50', '5.32 µM (active)'),
  ('Cc1ccc(NC(=O)c2ccc3c(c2)OCO3)cc1Cl', 'UniProtKB Q9BQF6', 'IC50', '4.44 µM (active)');

Per the records, this compound ( Oc1ccccc1-c1csc(-c2ccccc2)n1 ) has IC50 equal to 3.44 µM (active)
